pIC50 values by entry
System: HepG2
Experiment: Cell viability, crystal violet assay, HepG2
Assay type: cell-based, human
Details: 72 h; mean ± standard error
Procedure: The human hepatoma cell line HepG2 was obtained from the American Tissue Culture Collection (ATCC, Manassas, VA, USA). […] Cell lines were seeded into 96-well plates at 5 × 10^3 (HepG2) and 3 × 10^3 (Hep3B and HH4) cells/well 24 h before treatment. […] After treatment, the cell viability was determined using the crystal violet assay. The absorbance was recorded at 590 nm in a Synergy HT microplate reader (BioTek, Winooski, VT, USA). […]
Quick note: pIC50 values are minus log10 of concentrations in mol/L.

Here are 2 compounds together with their reported answers.
{"compound": "Oc1ccc([C@H]2c3c(O)cc(O)cc3[C@H]3c4c(cc(O)cc4[C@@H]2c2cc(/C=C/c4cc(O)cc5c4[C@H](c4cc(O)cc(O)c4)[C@@H](c4ccc(O)cc4)O5)ccc2O)O[C@@H]3c2ccc(O)cc2)cc1", "pIC50": 5.01}
{"compound": "Oc1ccc(/C=C/c2cc(O)cc(O)c2)cc1 [trans-Resveratrol, reference compound]", "pIC50": 4.52}

Please give measured pIC50 of the following entry: `Oc1ccc([C@H]2c3c(O)cc(O)cc3[C@H]3c4c(cc(O)cc4[C@@H]2O)O[C@@H]3c2ccc(O)cc2)cc1`
4.12

Please give measured pIC50 of the following entry: `Oc1ccc([C@@H]2c3c(O)cc(O)cc3[C@H]3c4c(cc(O)cc4[C@@H]2[C@H]2c4cc(O)cc5c4[C@H](c4cc(O)cc(O)c4[C@H]2c2ccc(O)cc2)[C@@H](c2ccc(O)cc2)O5)O[C@@H]3c2ccc(O)cc2)cc1`
4.27

Please give measured pIC50 of the following entry: `Oc1ccc([C@H]2c3c(O)cc(O)cc3[C@H]3c4c(cc(O)cc4[C@@H]2[C@H]2c4cc(O)cc5c4[C@H](c4cc(O)cc(O)c4[C@@H]2c2ccc(O)cc2)[C@@H](c2ccc(O)cc2)O5)O[C@@H]3c2ccc(O)cc2)cc1`
4.61

====

test system: Hep3B; assay: Cell viability, crystal violet assay, Hep3B; format: cell-based, human; conditions: Homo sapiens, Hep3B, 48 h; mean ± standard error
IC50 values by entry
In your response, put the unit directly after the numeric value.

{"chemical_string": "Oc1ccc([C@H]2c3c(O)cc(O)cc3[C@H]3c4c(cc(O)cc4[C@@H]2[C@H]2c4cc(O)cc5c4[C@H](c4cc(O)cc(O)c4[C@@H]2c2ccc(O)cc2)[C@@H](c2ccc(O)cc2)O5)O[C@@H]3c2ccc(O)cc2)cc1", "target_or_test_system": "Hep3B", "reported_result": "16.8 µM"}

From here, focus on the item given below.
Look up Hep3B data: IC50 of `Oc1ccc([C@@H]2c3c(O)cc(O)cc3[C@H]3c4c(cc(O)cc4[C@@H]2[C@H]2c4cc(O)cc5c4[C@H](c4cc(O)cc(O)c4[C@H]2c2ccc(O)cc2)[C@@H](c2ccc(O)cc2)O5)O[C@@H]3c2ccc(O)cc2)cc1` , then report it.
37 µM

====

Tested on: Hep3B
Assay: Cell viability, crystal violet assay, Hep3B
Type: cell-based, human
Conditions: 72 h; mean ± standard error
Method: The human hepatoma cell line HepG2 was obtained from the American Tissue Culture Collection (ATCC, Manassas, VA, USA). […] Cell lines were seeded into 96-well plates at 5 × 10^3 (HepG2) and 3 × 10^3 (Hep3B and HH4) cells/well 24 h before treatment. […] After treatment, the cell viability was determined using the crystal violet assay. The absorbance was recorded at 590 nm in a Synergy HT microplate reader (BioTek, Winooski, VT, USA). […]
pIC50 values by entry
Quick note: pIC50 values are minus log10 of concentrations in mol/L.

Here are 2 compounds together with their reported answers.
{"compound": "Oc1ccc(/C=C/c2cc(O)cc3c2[C@@H](c2cc(O)cc(O)c2)[C@H](c2ccc(O)cc2)O3)cc1 [trans-ε-Viniferin]", "reported_result": 4.20}
{"compound": "Oc1ccc([C@H]2c3c(O)cc(O)cc3[C@H]3c4c(cc(O)cc4[C@@H]2[C@H]2c4cc(O)cc5c4[C@H](c4cc(O)cc(O)c4[C@@H]2c2ccc(O)cc2)[C@@H](c2ccc(O)cc2)O5)O[C@@H]3c2ccc(O)cc2)cc1", "reported_result": 4.88}

Please give measured pIC50 of the following entry: `Oc1ccc([C@H]2c3c(O)cc(O)cc3[C@H]3c4c(cc(O)cc4[C@@H]2c2cc(/C=C/c4cc(O)cc5c4[C@H](c4cc(O)cc(O)c4)[C@@H](c4ccc(O)cc4)O5)ccc2O)O[C@@H]3c2ccc(O)cc2)cc1`
4.32
